Every entry's value here was drawn from paper PMC11424460.

test system: ivacaftor metabolism in rat liver microsomes (RLM); experiment: Screening of 79 drugs (100 μM) for inhibition of ivacaftor metabolism in RLM incubation; assay type: in vitro ADME; details: each drug 100 μM, 0.3 mg/mL RLM
I'd appreciate it if you could supply Metabolic rate (Mean ± SD, % of control) values for the items below.

# input What Metabolic rate (Mean ± SD, % of control) value was documented for this molecule, COC(=O)C1=C(C)NC(C)=C(C(=O)OC(C)(C)CN(C)CCC(c2ccccc2)c2ccccc2)C1c1cccc([N+](=O)[O-])c1 (stereo not shown) ?
# output 26.70 ± 7.18 % of control

# input Would you kindly repeat that for "O=C1C=CC[C@@H]2[C@H]3CCCN4CCC[C@@H](CN12)[C@@H]34" ?
# output 93.46 ± 2.14 % of control

# input Would you kindly repeat that for "O=c1cc(-c2ccccc2)oc2cc(O)cc(O)c12" ?
# output 74.50 ± 20.73 % of control

# input Would you kindly repeat that for "O=C(/C=C/C=C/c1ccc2c(c1)OCO2)N1CCCCC1" ?
# output 203.66 ± 9.93 % of control

# input Would you kindly repeat that for "CC[C@H](C)C(=O)O[C@H]1C[C@@H](C)C=C2C=C[C@H](C)[C@H](CC[C@@H]3C[C@@H](O)CC(=O)O3)[C@H]21" ?
# output 17.75 ± 0.36 % of control

# input Would you kindly repeat that for "COc1cc(/C=C/C(=O)CC(=O)/C=C/c2ccc(O)c(OC)c2)ccc1O" ?
# output 8.19 ± 0.34 % of control

# input Would you kindly repeat that for "O=c1cc(-c2ccc(O)cc2)oc2cc(O)cc(O)c12" ?
# output 58.35 ± 2.14 % of control

# input Would you kindly repeat that for O=C(O)Cc1ccc(O)cc1 [2-(4-Hydroxyphenyl) acetic acid] ?
# output 101.32 ± 0.94 % of control

# input Would you kindly repeat that for "Cc1ccc(Sc2ccccc2N2CCNCC2)c(C)c1" ?
# output 3.17 ± 0.50 % of control

# input Would you kindly repeat that for "CN/C(=N/CCSCc1nc[nH]c1C)NC#N" ?
# output 62.59 ± 8.46 % of control

# input Would you kindly repeat that for "CCCCc1oc2ccccc2c1C(=O)c1cc(I)c(OCCN(CC)CC)c(I)c1" ?
# output 5.73 ± 0.85 % of control

# input Would you kindly repeat that for Cc1cccc(C)c1OCC(C)N (stereo not shown) ?
# output 95.32 ± 2.42 % of control

# input Would you kindly repeat that for "CC(C)=CC[C@@H](O)C1=CC(=O)c2c(O)ccc(O)c2C1=O" ?
# output 41.65 ± 3.13 % of control

# input Would you kindly repeat that for COC(=O)C1=C(C)NC(C)=C(C(=O)OCC(C)C)C1c1ccccc1[N+](=O)[O-] (stereo not shown) ?
# output 7.29 ± 4.05 % of control

# input Would you kindly repeat that for "COc1ccc([C@@H]2CC(=O)c3c(O)cc(O)cc3O2)cc1O" ?
# output 31.12 ± 2.75 % of control

# input Would you kindly repeat that for "O=c1c(-c2ccc(O)cc2)coc2cc(O)ccc12" ?
# output 105.78 ± 2.90 % of control

# input Would you kindly repeat that for "O=C1CCC[C@@H]2[C@H]3CCCN4CCC[C@@H](CN12)[C@@H]34" ?
# output 80.23 ± 12.45 % of control

# input Would you kindly repeat that for "CCCc1nc2c(C)cc(-c3nc4ccccc4n3C)cc2n1Cc1ccc(-c2ccccc2C(=O)O)cc1" ?
# output 14.98 ± 1.00 % of control

# input Would you kindly repeat that for "O=C(O)c1cc(O)c(O)c(O)c1" ?
# output 95.98 ± 6.77 % of control
